# Test protocol: photoluminescence quantum yield (fraction); solvent given as SMILES
# Condition info: in C1CCCCC1
Measured parameter: photoluminescence quantum yield
Answer with the value's number alone.

Consider the following illustrative entries.
c1ccc(-c2cc3cccc[n+]3[b-]3c(-c4cccc5[b-]4[n+]4ccccc4cc5-c4ccccc4)cccc32)cc1 0.02
C=Cc1cccc(OC)c1 0.32
COc1cc(/C=C2/SC(=O)NC2=O)cc(OC)c1O 0.032

q: # input compound: CN(C)CCN(Cc1c2ccccc2cc2ccccc12)c1ccc([N+](=O)[O-])cc1 ; wanted: its photoluminescence quantum yield
a: 0.0008

q: So what does the record say about photoluminescence quantum yield for COc1cccc(C2=C(c3ccc(C(C)(C)C)cc3)C(c3ccc(C(C)(C)C)cc3)=[N+]3C2=C(c2ccccc2)c2c(-c4cccc(OC)c4)c(-c4ccc(C(C)(C)C)cc4)c(-c4ccc(C(C)(C)C)cc4)n2[B-]3(F)F)c1 ?
a: 0.44

q: So what does the record say about photoluminescence quantum yield for Cc1ccc(-c2ccccc2)cc1 ?
a: 0.23

q: Form field: reported photoluminescence quantum yield of c1ccc2c(-c3ccc4sc5ccccc5c4c3)c3ccccc3cc2c1
a: 0.52

q: Please report the recorded photoluminescence quantum yield for CC(C)(C)c1ccc2c(c1)Sc1cc(C(C)(C)C)ccc1N2c1ccc2c(ccc3nc4ccc5cc(N6c7ccc(C(C)(C)C)cc7Sc7cc(C(C)(C)C)ccc76)ccc5c4nc32)c1 .
a: 0.11

---

# Test protocol: photoluminescence quantum yield (fraction); solvent given as SMILES
# Condition info: in ClCCl
Measured photoluminescence quantum yield, listed per entry for reference.

q: photoluminescence quantum yield for F[B-]1(F)OC(c2ccccc2)=Cc2cc3[n+](c[n+]21)[B-](F)(F)OC(c1ccccc1)=C3 ?
a: 0.55

q: # photoluminescence quantum yield lookup, item CCOc1cc2c(cc1/C=C/C1=CC(=C(C#N)C#N)CC(C)(C)C1)c1ccccc1n2CC
a: 0.028

q: Entry under review: CN(C)c1ccc(C2=Nc3scc(-c4ccccc4)[n+]3[B-](F)(F)O2)cc1 . Reported photoluminescence quantum yield?
a: 0.89

q: Any idea what photoluminescence quantum yield was measured for Cc1c(C2=[N+]3C(=Cc4c(C)c5ccccc5n4[B-]3(F)F)c3ccccc32)[nH]c2ccccc12 ?
a: 0.08

q: Record request: photoluminescence quantum yield value, item CCOC(=O)COc1ccc(/C=C/C2=C3c4ccccc4C(c4[nH]c(C)cc4C)=[N+]3[B-](F)(F)n3c(C)cc(C)c32)cc1
a: 0.014

q: May I ask what photoluminescence quantum yield has been recorded for COc1c2ccccc2c(OC)c2c1c1ccc(F)cc1n2C ?
a: 0.45

q: Query: photoluminescence quantum yield; subject: CNC(=O)[C@H](C)NC(=O)c1cccc2c1C#Cc1c(N)cccc1OCCCO2
a: 0.44

q: Look up photoluminescence quantum yield: CN(C)c1ccc(/C=C/c2ccnc(/C=C/c3ccc(N(C)C)cc3)n2)cc1
a: 0.04

q: Fill in the blank: the reported photoluminescence quantum yield of CN(C)c1ccc(C#Cc2cc(C#Cc3ccc(N(C)C)cc3)c3ccc4c(C#Cc5ccc(N(C)C)cc5)cc(C#Cc5ccc(N(C)C)cc5)c5ccc2c3c54)cc1 is ____.
a: 0.6

q: Name the recorded photoluminescence quantum yield for c1csc(-c2c3ccc(=[N+]4CCCCC4)cc-3oc3cc(N4CCCCC4)ccc23)c1 .
a: 0.33

---

# Test protocol: photoluminescence quantum yield (fraction); solvent given as SMILES
# Condition info: in CC#N
Tag: met if measured photoluminescence quantum yield is not below 0.1, not met if it is.

Compound	Assigned class
COC(=O)c1cc(=O)n(C)c2cc(-c3cc(OC)c(OC)c(OC)c3)sc12	met

q: Form field: photoluminescence quantum yield at least 0.1? Entry: c1ccc(-c2c3c(c(-c4ccccc4)c4cc5ccccc5cc24)Cc2c(c(-c4ccccc4)c4cc5ccccc5cc4c2-c2ccccc2)C3)cc1
a: met

q: Decide: photoluminescence quantum yield of CN1C(C(=O)Nc2ccccn2)=C(O)c2sccc2S1(=O)=O >= 0.1?
a: not met

q: # check: photoluminescence quantum yield of COc1cc(/C=C/c2ccccn2)c(OC)cc1C=O is greater than or equal to 0.1
a: met

q: Could you tell me if the measured photoluminescence quantum yield of COC(=O)C(Cc1ccc2oc(-c3ccc(N(C)c4ccccc4)cc3)nc2c1)NC(=O)OC(C)(C)C (stereo not given) reaches 0.1 or more?
a: met

---

# Test protocol: photoluminescence quantum yield (fraction); solvent given as SMILES
# Condition info: in c1ccc2c(c1)c1ccccc1n2-c1ccc(-c2ccc(-n3c4ccccc4c4ccccc43)cc2)cc1
Measured parameter: photoluminescence quantum yield
Write the number on its own, no unit after it.

CCCCCCN1C(=O)C(c2ccc(-n3c4ccccc4c4ccccc43)cc2)=C(c2ccc(-n3c4ccccc4c4ccccc43)cc2)C1=O 0.66
O=P1(c2ccccc2)c2ccc(N3c4ccccc4Sc4ccccc43)cc2-c2cc(N3c4ccccc4Sc4ccccc43)ccc21 0.53

Shift focus to the following entry.
q: Looking for the measured photoluminescence quantum yield of Cc1cc(C)c(B(c2c(C)cc(C)cc2C)c2c(C)cc(N3c4ccccc4Oc4ccccc43)cc2C)c(C)c1 , can you help?
a: 0.92

---

# Test protocol: photoluminescence quantum yield (fraction); solvent given as SMILES
# Condition info: in CCCCCC
In plain terms, low photoluminescence quantum yield, meaning strictly below 0.6, gives y, and everything else gives n.

Consider the following illustrative entries.
Compound	Assigned class
F[B-]1(F)n2c(nc3c4ccccc4c4ccccc4c32)-c2cccc[n+]21	n
COC(=O)c1ccc2ccc3cccc4ccc1c2c34	n
CCC1=C(C)C2=Cc3c4ccccc4c4n3[B-](c3ccc(OC)cc3)(Oc3ccccc3-4)[N+]2=C1C (stereo unspecified)	n
c1ccc(-n2cccc2)cc1	y
COc1ccc2cc3c(C)cc(=O)oc3cc2c1	y

Kindly consider the entry below.
q: Report whether reported photoluminescence quantum yield is lower than 0.6 (strictly) for CC1=[N+]2C(=Cc3cccn3[B-]2(F)F)C=C1
a: n

---

# Test protocol: photoluminescence quantum yield (fraction); solvent given as SMILES
# Condition info: in ClC(Cl)Cl
Measured parameter: photoluminescence quantum yield
Please respond with just the number, no unit label.

Look over these answered cases.
CC1=[N+]2C(=C(c3ccccc3)c3ccc(C)n3[B-]2(F)F)C=C1 0.38
CN(C)CCN(Cc1c2ccccc2cc2ccccc12)c1ccc([N+](=O)[O-])cc1[N+](=O)[O-] 0.0009
CN(c1ccccc1)c1ccc(-c2ccc(-c3ccc(N(C)c4ccccc4)cc3)c3nc(-c4ccccc4)c(-c4ccccc4)nc23)cc1 0.01

q: Could you tell me which photoluminescence quantum yield is on file for Cc1ccc2c3ccc(C)cc3c3cc4c(C)cc(=O)oc4cc3c2c1 ?
a: 0.11

q: What does the data say about its photoluminescence quantum yield? Entry: CCN(CC)c1ccc2cc3c([o+]c2c1)/C(=C/Nc1ccccc1)CCC3
a: 0.22

---

Entries annotated with measured photoluminescence quantum yield
# Test protocol: photoluminescence quantum yield (fraction); solvent given as SMILES
# Condition info: in CO
Returns: the value as a bare number; no unit string appended.

Below: 6 compounds and their reported photoluminescence quantum yield.
Compound	photoluminescence quantum yield
CCC1=C(C)C2=Cc3c(I)c(I)c(I)n3[B-](F)(F)[N+]2=C1C	0.032
CC1=[N+]2C(=C(c3ccccc3)c3ccc(C)n3[B-]2(F)F)C=C1	0.19
COc1ccc(C2=C3C=CC(C)=[N+]3[B-](F)(F)n3c(C)ccc32)cc1	0.25
c1ccc(-c2c3c(c(-c4ccccc4)c4cc5ccccc5cc24)Cc2c(c(-c4ccccc4)c4cc5ccccc5cc4c2-c2ccccc2)C3)cc1	0.3
Cc1ccc2sc3cc(CCC(=O)O)ccc3c(=O)c2c1	0.12
CNC1=C2C=CC=[N+]2[B-](F)(F)n2cccc21	0.1

q: Need photoluminescence quantum yield of CCCCCCN(CCCCCC)c1ccc(C#Cc2c(F)c(F)c(F)c(F)c2F)cc1 , thanks.
a: 0.0014

q: Which photoluminescence quantum yield is reported for this compound? NS(=O)(=O)c1ccc(N2N=C(c3ccc(O)cc3)CC2c2ccc(Br)cc2)cc1 (stereo unspecified)
a: 0.38

---

As shown below, each of these compounds has a reported photoluminescence quantum yield value.
# Test protocol: photoluminescence quantum yield (fraction); solvent given as SMILES
# Condition info: in CC#N
Answer with a number only.

COc1cc(/C=C/C(=O)CC(=O)/C=C/c2ccc(O)c(OC)c2)ccc1O 0.075
CC(=O)[B-]1(C(C)=O)OC(c2ccc3ccccc3c2)=CC(c2ccc3ccccc3c2)=[O+]1 0.56
Cn1cc(/C=C/C(=O)c2ccccc2)c2ccccc21 0.343
COc1cc(/C=C/c2ccncc2)c(OC)cc1C=O 0.17
CN(C)c1cccc2c1-c1ccccc1C2=O 0.0075

Next compound, please.
q: If you can, please state the reported photoluminescence quantum yield value of COc1nc(Nc2ccc3cc4ccccc4cc3c2)nc(OC)n1 .
a: 0.37

---

# Test protocol: photoluminescence quantum yield (fraction); solvent given as SMILES
# Condition info: in CO
Param label: returns Satisfied when photoluminescence quantum yield < 0.3, returns Not satisfied otherwise, including exact equality.

The following compounds have reported results that may help.
Compound	Assigned class
c1cc2ccc3cccc4c(-c5cc(-c6nccs6)nc(-c6nccs6)c5)cc(c1)c2c34	Satisfied
CC1=[N+]2C(=Cc3cccn3[B-]2(F)F)C=C1	Not satisfied
COc1c2ccccc2c(OC)c2c1c1ccc(F)cc1n2C	Not satisfied
c1ccc(-c2nc(-c3ccccc3)c(-c3ccccc3)[nH]2)cc1	Satisfied

q: API: query returns whether the compound falls strictly under 0.3 in photoluminescence quantum yield. Query: CCN(CC)c1ccc2cc(-c3csc(N)c3C#N)c(=O)oc2c1
a: Satisfied

q: I'd appreciate it if you could check whether CCCCCCCCCCCn1cccc1C1=[N+]2C(=Cc3c(C)cc(C)n3[B-]2(F)F)c2ccccc21 has photoluminescence quantum yield smaller than 0.3.
a: Not satisfied

q: Please check: photoluminescence quantum yield for O=[N+]([O-])c1ccc(F)cc1C1CC(c2cccc3ccccc23)=NN1c1ccccc1 (stereo not given) , strictly under 0.3 or not?
a: Satisfied

q: Below 0.3 on photoluminescence quantum yield? Entry CC1=C(C(C)(C)C)C(C)=[N+]2C1=C(C)c1c(C)c(C(C)(C)C)c(C)n1[B-]2(F)F
a: Not satisfied

q: # strict comparison: is reported photoluminescence quantum yield < 0.3? input = CCOC(=O)/C(C#N)=C\c1ccc2c(c1)c1ccccc1n2-c1ccc(OC)cc1
a: Satisfied
